// data source = patent US10626144B2

# Test system: Escherichia coli ATCC 25922
# protocol-notes: MIC, broth microdilution (CLSI), reference strain
# measurement-context: CAMHB
Square brackets hold non-standard residues; d marks the D form. Peptide text beside a SMILES is read from it. * marks the point of attachment. Pro(4R-NH2) = N[C@H]1CN[C@H](C(=O)O)C1; ΔZArg = N=C(N)NCC/C=C(\N)C(=O)O; dOrn = NCCC[C@@H](N)C(=O)O; Dab = NCC[C@H](N)C(=O)O; NH(CH2)4NH2 = NCCCCN*; NHOH = ON*
metric-name: Ec: MIC Escherichia coli ATCC 25922

| compound | metric-name | result |
| --- | --- | --- |
| C[C@H](NC(=O)[C@H](CCN)NC(=O)[C@@H](N)CCCCN)C(=O)NCC(=O)N[C@H](CCCN)C(=O)N1C[C@H](N)C[C@H]1C(=O)N[C@@H](Cc1cnc[nH]1)C(=O)N[C@@H](CCCCN)C(=O)N/C(=C\CCNC(=N)N)C(=O)N[C@@H](CCCCN)C(=O)NCCCCN [14.17] (H-K[Dab]AG[dOrn][Pro(4R-NH2)]HK[ΔZArg]K-{NH(CH2)4NH2}) | Ec: MIC Escherichia coli ATCC 25922 | − (>32 μg/mL) |
| C[C@H](NC(=O)[C@H](CCN)NC(=O)[C@@H](N)CCCCN)C(=O)NCC(=O)N[C@H](CCCN)C(=O)N1CCC[C@H]1C(=O)N[C@@H](Cc1cnc[nH]1)C(=O)N[C@@H](CCCCN)C(=O)N/C(=C\CCNC(=N)N)C(=O)N[C@@H](CCCCN)C(=O)NO [14.14] (H-K[Dab]AG[dOrn]PHK[ΔZArg]K-{NHOH}) | Ec: MIC Escherichia coli ATCC 25922 | − (>32 μg/mL) |

---

# target-or-system: N-type calcium channels (Cav2.2) (Rattus norvegicus (Rat))
# protocol-notes: biochemical
# Type: binding
# measurement-context: value in brackets; rat cerebral cortex, [125I]ω-conotoxin GVIA 0.001 nM; read-out: IC50 Cav2.2
Numbered stars: 1 amine (or outer) side, 2 acyl side, 3 side chain; on linkers, the order of the positions; unused ones are H or OH. Square brackets hold non-standard residues; d marks the D form. Peptide text beside a SMILES is read from it. * marks the point of attachment. Phe(3,4-(OMe)2) = COc1ccc(C[C@H](N)C(=O)O)cc1OC; Abu(4,4,4-F3) = N[C@@H](CC(F)(F)F)C(=O)O; Dab(3S-OH) = NC[C@H](O)[C@H](N)C(=O)O; ΔZArg = N=C(N)NCC/C=C(\N)C(=O)O; X2 = CC=C(N[*:1])C(=O)[*:2]; dOrn = NCCC[C@@H](N)C(=O)O; NH(CH2)4NH2 = NCCCCN*

| molecule | IC50, nM |
| --- | --- |
| C[C@H](NC(=O)[C@@H](NC(=O)[C@@H](N)CCCCN)[C@@H](O)CN)C(=O)NCC(=O)N[C@H](CCCN)C(=O)N1CCC[C@H]1C(=O)N[C@@H](CC(F)(F)F)C(=O)N[C@@H](CCCCN)C(=O)N/C(=C\CCNC(=N)N)C(=O)O [24.109] (H-K[Dab(3S-OH)]AG[dOrn]P[Abu(4,4,4-F3)]K[ΔZArg]-OH) | 1000 |
| CC=C(NC(=O)[C@H](CCCCN)NC(=O)[C@H](Cc1cnc[nH]1)NC(=O)[C@@H]1CCCN1C(=O)[C@@H](CCCN)NC(=O)CNC(=O)[C@@H](NC(=O)[C@@H](NC(=O)[C@@H](N)CCCCN)[C@@H](O)CN)[C@@H](O)CN)C(=O)N[C@@H](CCCCN)C(=O)NCCCCN [22.15] (H-K[Dab(3S-OH)][Dab(3S-OH)]G[dOrn]PHK[X2]K-{NH(CH2)4NH2}) | 4 |
| COc1ccc(C[C@H](NC(=O)[C@@H]2CCCN2C(=O)[C@@H](CCCN)NC(=O)CNC(=O)[C@H](C)NC(=O)[C@@H](NC(=O)[C@@H](N)CCCCN)[C@@H](O)CN)C(=O)N[C@@H](CCCCN)C(=O)N/C(=C\CCNC(=N)N)C(=O)O)cc1OC [24.85] (H-K[Dab(3S-OH)]AG[dOrn]P[Phe(3,4-(OMe)2)]K[ΔZArg]-OH) | 1200 |

---

# Test system: Escherichia coli ATCC 25922
# protocol-notes: MIC, broth microdilution (CLSI), reference strain
# measurement-context: CAMHB
Square brackets hold non-standard residues; d marks the D form. Peptide text beside a SMILES is read from it. * marks the point of attachment. Phe(4-Cl) = N[C@@H](Cc1ccc(Cl)cc1)C(=O)O; Dab(3S-OH) = NC[C@H](O)[C@H](N)C(=O)O; Phe(2-F) = N[C@@H](Cc1ccccc1F)C(=O)O; 4Pal = N[C@@H](Cc1ccncc1)C(=O)O; ΔZArg = N=C(N)NCC/C=C(\N)C(=O)O; Lys(Me) = CNCCCC[C@H](N)C(=O)O; dOrn = NCCC[C@@H](N)C(=O)O; Orn = NCCC[C@H](N)C(=O)O; NH(CH2)4NH2 = NCCCCN*
metric-name: Ec: MIC Escherichia coli ATCC 25922

| compound | metric-name | result |
| --- | --- | --- |
| CC(=O)NCCCC[C@H](N)C(=O)N[C@H](C(=O)N[C@@H](C)C(=O)NCC(=O)N[C@H](CCCN)C(=O)N1CCC[C@H]1C(=O)N[C@@H](Cc1cnc[nH]1)C(=O)N[C@@H](CCCCN)C(=O)N/C(=C\CCNC(=N)N)C(=O)N[C@@H](CCCCN)C(=O)NCCCCN)[C@@H](O)CN [24.9] (H-K(Ac)[Dab(3S-OH)]AG[dOrn]PHK[ΔZArg]K-{NH(CH2)4NH2}) | Ec: MIC Escherichia coli ATCC 25922 | − (>32 μg/mL) |
| N=C(N)NCC/C=C(\NC(=O)[C@H](CCCCN)NC(=O)[C@H](Cc1cnc[nH]1)NC(=O)[C@@H]1CCCN1C(=O)[C@@H](CCCN)NC(=O)CNC(=O)[C@H](CCCN)NC(=O)[C@@H](NC(=O)[C@@H](N)CCCCN)[C@@H](O)CN)C(=O)N[C@@H](CCCCN)C(=O)NCCCCN [211.1] (H-K[Dab(3S-OH)][Orn]G[dOrn]PHK[ΔZArg]K-{NH(CH2)4NH2}) | Ec: MIC Escherichia coli ATCC 25922 | ++ (≤8 μg/mL) |
| C[C@H](NC(=O)[C@@H](NC(=O)[C@@H](N)CCCCN)[C@@H](O)CN)C(=O)NCC(=O)N[C@H](CCCN)C(=O)N1CCC[C@H]1C(=O)N[C@@H](Cc1ccccc1F)C(=O)N[C@@H](CCCCN)C(=O)N/C(=C\CCNC(=N)N)C(=O)O [24.151] (H-K[Dab(3S-OH)]AG[dOrn]P[Phe(2-F)]K[ΔZArg]-OH) | Ec: MIC Escherichia coli ATCC 25922 | ++ (≤8 μg/mL) |
| CNCCCC[C@H](N)C(=O)N[C@H](C(=O)N[C@@H](C)C(=O)NCC(=O)N[C@H](CCCN)C(=O)N1CCC[C@H]1C(=O)N[C@@H](Cc1ccc(Cl)cc1)C(=O)N[C@@H](CCCCN)C(=O)N/C(=C\CCNC(=N)N)C(=O)O)[C@@H](O)CN [24.148] (H-[Lys(Me)][Dab(3S-OH)]AG[dOrn]P[Phe(4-Cl)]K[ΔZArg]-OH) | Ec: MIC Escherichia coli ATCC 25922 | ++ (≤8 μg/mL) |
| C[C@H](NC(=O)[C@@H](NC(=O)[C@@H](N)CCCCN)[C@@H](O)CN)C(=O)NCC(=O)N[C@H](CCCN)C(=O)N1CCC[C@H]1C(=O)N[C@@H](Cc1ccncc1)C(=O)N[C@@H](CCCCN)C(=O)N/C(=C\CCNC(=N)N)C(=O)O [24.108] (H-K[Dab(3S-OH)]AG[dOrn]P[4Pal]K[ΔZArg]-OH) | Ec: MIC Escherichia coli ATCC 25922 | − (>32 μg/mL) |
